Data credit: paper PMC11040352

experiment-notes: Ex vivo biodistribution in mice with MM1S tumor xenografts
test-context: both sexes, NSG, mouse, blood, 80 µCi, total radioactivity, 90 min p.i.; MM1S xenograft mice; read-out: uptake in blood
endpoint-label: tissue uptake at 1.5 h (%ID/g)
Give the value, in units of %ID/g, as a plain number.

Form: compound = CC[C@H](C)[C@@H]1NC(=O)[C@@H]2CCCN2C(=O)[C@H](Cc2ccccc2)NC(=O)[C@H](CC(=O)O)NC(=O)[C@H](C)NC(=O)[C@@H]2CSCc3cc(cc(c3)CSC[C@H](NC(=O)[C@H](C)NC(=O)CCOCCOCCOCCNC(=O)CN3CCN(CC(=O)O)CCN(CC(=O)O)CC3)C(=O)N[C@@H](C(C)C)C(=O)N3CCC[C@H]3C(=O)N2)CSC[C@@H](C(N)=O)NC(=O)[C@H](Cc2ccc(O)cc2)NC(=O)[C@H](Cc2c[nH]c3ccccc23)NC1=O [[^68Ga]Ga‐AJ206, metal not drawn] ; tissue uptake at 1.5 h = 0.75

====

experiment-notes: Ex vivo biodistribution in mice with MM1S tumor xenografts
test-context: both sexes, NSG, mouse, thymus, 80 µCi, total radioactivity, 5 min p.i.; MM1S xenograft mice; read-out: uptake in thymus
endpoint-label: tissue uptake at 5 min (%ID/g)
Value expressed in %ID/g; do not type the unit.

Query CC[C@H](C)[C@@H]1NC(=O)[C@@H]2CCCN2C(=O)[C@H](Cc2ccccc2)NC(=O)[C@H](CC(=O)O)NC(=O)[C@H](C)NC(=O)[C@@H]2CSCc3cc(cc(c3)CSC[C@H](NC(=O)[C@H](C)NC(=O)CCOCCOCCOCCNC(=O)CN3CCN(CC(=O)O)CCN(CC(=O)O)CC3)C(=O)N[C@@H](C(C)C)C(=O)N3CCC[C@H]3C(=O)N2)CSC[C@@H](C(N)=O)NC(=O)[C@H](Cc2ccc(O)cc2)NC(=O)[C@H](Cc2c[nH]c3ccccc23)NC1=O [[^68Ga]Ga‐AJ206, metal not drawn] yields tissue uptake at 5 min of 16.5

====

experiment-notes: Ex vivo biodistribution in mice with MM1S tumor xenografts
test-context: both sexes, NSG, mouse, lung, 80 µCi, total radioactivity, 120 min p.i.; MM1S xenograft mice; read-out: uptake in lung
endpoint-label: tissue uptake at 2 h (%ID/g)
Numeric answer only, unit %ID/g assumed.

CC[C@H](C)[C@@H]1NC(=O)[C@@H]2CCCN2C(=O)[C@H](Cc2ccccc2)NC(=O)[C@H](CC(=O)O)NC(=O)[C@H](C)NC(=O)[C@@H]2CSCc3cc(cc(c3)CSC[C@H](NC(=O)[C@H](C)NC(=O)CCOCCOCCOCCNC(=O)CN3CCN(CC(=O)O)CCN(CC(=O)O)CC3)C(=O)N[C@@H](C(C)C)C(=O)N3CCC[C@H]3C(=O)N2)CSC[C@@H](C(N)=O)NC(=O)[C@H](Cc2ccc(O)cc2)NC(=O)[C@H](Cc2c[nH]c3ccccc23)NC1=O [[^68Ga]Ga‐AJ206, metal not drawn] has a reported tissue uptake at 2 h of 0.4

====

experiment-notes: Ex vivo biodistribution in mice with MM1S tumor xenografts
test-context: both sexes, NSG, mouse, stomach (with contents), 80 µCi, 5 min p.i.; MM1S xenograft mice; read-out: uptake in stomach (with contents)
endpoint-label: tissue uptake at 5 min (%ID/g)
Note: unit %ID/g is implicit; provide only the numeric part.

Lab book: tissue uptake at 5 min of CC[C@H](C)[C@@H]1NC(=O)[C@@H]2CCCN2C(=O)[C@H](Cc2ccccc2)NC(=O)[C@H](CC(=O)O)NC(=O)[C@H](C)NC(=O)[C@@H]2CSCc3cc(cc(c3)CSC[C@H](NC(=O)[C@H](C)NC(=O)CCOCCOCCOCCNC(=O)CN3CCN(CC(=O)O)CCN(CC(=O)O)CC3)C(=O)N[C@@H](C(C)C)C(=O)N3CCC[C@H]3C(=O)N2)CSC[C@@H](C(N)=O)NC(=O)[C@H](Cc2ccc(O)cc2)NC(=O)[C@H](Cc2c[nH]c3ccccc23)NC1=O [[^68Ga]Ga‐AJ206, metal not drawn] noted as 1.65
